Origin of measurements: patent US9708306B2

tested on: normal rats; test: Effect on blood pressure of normal rats by single oral administration; format: in vivo, Wistar rats; details: Rattus norvegicus, po; 2.0 mg/kg p.o., single, normal rats; read-out: variations on heart rate
For each entry below, report its change in vivo at 2 mg/kg value.
One number for each entry, in %.

CCOc1nc2cccc(C(=O)OC(C)OC(=O)OC(C)C)c2n1Cc1ccc(-c2ccccc2-c2noc(=O)[nH]2)cc1 (stereo not shown): -3
CCOc1nc2cccc(C(=O)OC(C)OC(=O)OCc3nc(C)c(C)nc3C)c2n1Cc1ccc(-c2ccccc2-c2noc(=O)[nH]2)cc1 (stereo not shown): 8
CCOc1nc2cccc(C(=O)OCCOC(C)=O)c2n1Cc1ccc(-c2ccccc2-c2noc(=O)[nH]2)cc1: 3
CCOc1nc2cccc(C(=O)OCCCCO[N+](=O)[O-])c2n1Cc1ccc(-c2ccccc2-c2noc(=O)[nH]2)cc1: -2
CCOc1nc2cccc(C(=O)ONC(=N)Nc3ccccc3)c2n1Cc1ccc(-c2ccccc2-c2noc(=O)[nH]2)cc1: -3

Hello, I would appreciate it if you could give change in vivo at 2 mg/kg for each entry below.
1. CCOc1nc2cccc(C(=O)OC3COC4C(O[N+](=O)[O-])COC34)c2n1Cc1ccc(-c2ccccc2-c2noc(=O)[nH]2)cc1 (stereo not shown)
2. CCOc1nc2cccc(C(=O)OCOC(=O)OCc3ccno3)c2n1Cc1ccc(-c2ccccc2-c2noc(=O)[nH]2)cc1

Output:
1: 5; 2: -3
